# target system: PIP4K2A (Homo sapiens, UniProt P48426)
# protocol description: Kinase Assay PIP4K2 A (Table 2)
# Assay type: biochemical
# Design: 4 nM PIP4K2A (full length protein, SignalChem); purchased SignalChem
# setup conditions: compounds listed under IC50 bins
pIC50: −log10 of the molar value.
reported endpoint: pIC50

molecule: COc1cncc(C(=O)Nc2cncc(Nc3ccc(-c4ccc(N5CCCC5=O)cc4)cn3)c2)c1 [Example 239]
test value: 8.00 to 9.00
//
molecule: CN(C)C(=O)c1ccc(-c2ccc(Nc3cncc(N4CCN(Cc5cccc(N)c5)C4=O)c3)nc2)cc1 [Example 223]
test value: ≥ 9.00
//
molecule: CN(C)C(=O)c1ccc(-c2ccc(Nc3cnc4c(c3)NCCO4)nc2)cc1 [Example 46]
test value: 7.00 to 8.00

IN: Any idea what pIC50 was measured for CC(O)C(=O)N1CCOc2ncc(Nc3ccc(-c4ccc(N5CCCC5=O)cc4)cn3)cc21 (stereo not drawn) [Example 234] ?
OUT: 8.00 to 9.00

IN: Then this molecule: COc1nc(Nc2cnc3c(c2)N2C(=O)CC[C@H]2CO3)ncc1-c1ccc(-n2nncc2C)cc1 [Example 288]
OUT: ≥ 9.00

IN: Then this molecule: O=C1CCCN1c1ccc(-c2ccc(Nc3cnc4c(c3)N3C(=O)CC[C@H]3CO4)nc2)cc1 [Example 84]
OUT: 8.00 to 9.00

IN: Then this molecule: CN(C)C(=O)c1ccc(-c2ccc(Nc3cncc(C4(C#N)CC4)c3)nc2)cc1 [Example 40]
OUT: 7.00 to 8.00

IN: Then this molecule: CN(C)C(=O)c1ccc(-c2cnc(Nc3cncc(N4CCCC4=O)c3)cn2)cc1F [Example 20]
OUT: 6.00 to 7.00

IN: Then this molecule: Cn1cnnc1-c1ccc(-c2ccc(Nc3cnc4c(c3)N3C(=O)CC[C@H]3CO4)nc2)cc1 [Example 291]
OUT: 7.00 to 8.00

IN: Then this molecule: CN(C)C(=O)c1ccc(-c2ccc(Nc3cncc(N4CCN(Cc5ccc(NC(=O)CN)cc5)C4=O)c3)nc2)cc1 [Example 228]
OUT: < 6.00

IN: Then this molecule: CN(C)C/C=C/C(=O)Nc1cccc(CCC(=O)Nc2cccc(CN3CCN(c4cncc(Nc5ccc(-c6ccc(C(=O)N(C)C)cc6)cn5)c4)C3=O)c2)c1 [Example 225]
OUT: 8.00 to 9.00

IN: Then this molecule: CN(C)C(=O)c1ccc(-c2ccc(Nc3cccnc3)nc2)s1 [Example 5]
OUT: < 6.00

IN: Then this molecule: CN1C[C@H]2COc3ncc(Nc4ccc(-c5ccc(N6CCCC6=O)cc5)cn4)cc3N2S1(=O)=O [Example 175]
OUT: 6.00 to 7.00

IN: Then this molecule: CC(O)C(=O)N1CCOc2ncc(Nc3ccc(-c4ccc(C(=O)N(C)C)cc4)cn3)cc21 (stereo not drawn) [Example 92]
OUT: 8.00 to 9.00

IN: Then this molecule: CN(C)C/C=C/C(=O)NCCOCCOCCC(=O)Nc1cccc(C(=O)Nc2cncc(Nc3ccc(-c4ccc(C(=O)N(C)C)cc4)cn3)c2)c1 [Example 114]
OUT: 7.00 to 8.00

====

Reported values of IC50 for individual entries
# target system: UniProtKB P48426
# protocol description: Kinase Assay PIP4K2 A (Table 2)
# Format: biochemical
# Design: 4 nM PIP4K2A (full length protein, SignalChem); purchased SignalChem
# setup conditions: compounds listed under IC50 bins

compound: CN(C)C(=O)c1ccc(-c2cnc(Nc3cccnc3)cn2)cc1 [Example 18]
IC50: 0.1 to 1 µM
--
compound: CN(C)C(=O)c1ccc(-c2ccc(Nc3cncc(NC(=O)c4ccccn4)c3)nc2)cc1 [Example 128]
IC50: 0.01 to 0.1 µM
--
compound: CN(C)C(=O)c1ccc(-c2ccc(Nc3cc[nH]c(=O)c3)nc2)cc1 [Example 221]
IC50: > 1 µM
--
compound: COc1nc(Nc2cnc3c(c2)N2C(=O)CC[C@H]2CO3)ncc1-c1ccc(C(=O)N(C)C)cc1 [Example 294]
IC50: 0.001 to 0.01 µM
--
compound: CN(C)C(=O)c1ccc(-c2ccc(Nc3cnc4c(c3)N(C(=O)c3ccccc3)CCO4)nc2)cc1 [Example 94]
IC50: 0.001 to 0.01 µM

IN: Any idea what IC50 was measured for CN(C)C(=O)c1ccc(-c2ccc(Nc3cnc4c(c3)OCCO4)nc2)cc1 [Example 50] ?
OUT: 0.01 to 0.1 µM

IN: Then this compound: CN(C)C(=O)c1ccc(-c2ccc(Nc3cncc(N)c3)nc2)cc1 [Example 115]
OUT: 0.1 to 1 µM

IN: Then this compound: CN(C)C(=O)c1ccc(-c2ccc(Nc3cncc(N(C)S(C)(=O)=O)c3)nc2)cc1 [Example 24]
OUT: 0.01 to 0.1 µM

IN: Then this compound: CN(C)C(=O)c1ccc(-c2ccc(Nc3cncc(NC(=O)c4cccc(N)c4)c3)nc2)cc1 [Example 99]
OUT: 0.01 to 0.1 µM

IN: Then this compound: CN(C)C(=O)c1ccc(-c2ccc(Nc3ccc(N4CCOCC4)nc3)nc2)cc1 [Example 60]
OUT: > 1 µM

IN: Then this compound: CCc1cc(Nc2cccnc2)ncc1-c1ccc(C(=O)N(C)C)cc1 [Example 17]
OUT: 0.1 to 1 µM

IN: Then this compound: Cn1cnnc1N1CC=C(c2ccc(Nc3cnc4c(c3)N3C(=O)CC[C@H]3CO4)nc2)CC1 [Example 274]
OUT: 0.1 to 1 µM

IN: Then this compound: O=C1CCCN1c1ccc(-c2ccc(Nc3cnc4c(c3)N3C(=O)C(O)C[C@H]3CO4)nc2)cc1F (some centres unmarked) [Example 267]
OUT: 0.001 to 0.01 µM

IN: Then this compound: Cn1cnnc1N1CCN(c2ccc(Nc3cnc4c(c3)N3C(=O)CC[C@H]3CO4)nc2)CC1 [Example 275]
OUT: 0.1 to 1 µM

IN: Then this compound: CN(c1cncc(Nc2ccc(-c3ccc(N4CCCC4=O)cc3)cn2)c1)S(C)(=O)=O [Example 157]
OUT: 0.01 to 0.1 µM

IN: Then this compound: CC(C)S(=O)(=O)N1CCOc2ncc(Nc3ccc(-c4ccc(N5CCCC5=O)cc4)cn3)cc21 [Example 153]
OUT: 0.01 to 0.1 µM

IN: Then this compound: CN(C)C(=O)c1ccc(-c2ccc(Nc3cncc(N4CCN(CC5CCCO5)C4=O)c3)nc2)cc1 (centres unmarked) [Example 77]
OUT: 0.01 to 0.1 µM

====

Reported values of pIC50 for individual entries
# target system: PIP4K2A (Homo sapiens)
# protocol description: ADP-glo kinase assay PIP4K 2A (Table 3)
# Format: biochemical
# Set-up: made in house; host or cells: E. coli
# setup conditions: compounds listed under IC50 bins
pIC50: −log10 of the molar value.

These recorded examples may help you get a feel for the data.
compound smiles: CN(C)CCCC(=O)Nc1ccc(C(=O)Nc2cncc(Nc3ccc(-c4ccc(N5CCCC5=O)cc4)cn3)c2)cc1
target system: PIP4K2A (Homo sapiens)
pIC50: 7.00 to 8.00

compound smiles: O=C1CCCN1c1ccc(-c2ccc(Nc3cnc4c(c3)N(C(=O)C3(O)CC3)CCO4)nc2)cc1
target system: PIP4K2A (Homo sapiens)
pIC50: 8.00 to 9.00

compound smiles: CN(C)C(=O)c1ccc(-c2ccc(Nc3cnc4c(c3)OCO4)nc2)cc1
target system: PIP4K2A (Homo sapiens)
pIC50: 6.00 to 7.00

Here's the next entry for you.
IN: Any idea what pIC50 was measured for CN(c1cncc(Nc2ccc(-c3ccc(N4CCCC4=O)cc3)cn2)c1)S(C)(=O)=O ?
OUT: 7.00 to 8.00

====

# target system: PIP4K2A (Homo sapiens, UniProt P48426)
# Sequence (P48426 1-406): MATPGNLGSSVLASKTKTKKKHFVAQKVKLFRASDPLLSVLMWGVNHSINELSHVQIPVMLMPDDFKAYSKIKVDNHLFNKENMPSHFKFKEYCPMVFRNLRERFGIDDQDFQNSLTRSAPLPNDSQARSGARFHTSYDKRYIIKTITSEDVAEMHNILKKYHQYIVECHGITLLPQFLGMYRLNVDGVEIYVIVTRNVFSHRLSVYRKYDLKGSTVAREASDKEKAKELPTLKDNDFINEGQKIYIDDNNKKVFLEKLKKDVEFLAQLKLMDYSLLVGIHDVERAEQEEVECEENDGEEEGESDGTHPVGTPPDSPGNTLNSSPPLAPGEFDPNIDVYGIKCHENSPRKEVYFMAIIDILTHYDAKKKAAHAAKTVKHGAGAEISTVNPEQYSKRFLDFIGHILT
# protocol description: Kinase Assay PIP4K2 A (Table 2)
# Format: biochemical
# Design: 4 nM PIP4K2A (full length protein, SignalChem); purchased SignalChem
# setup conditions: compounds listed under IC50 bins
pIC50: −log10 of the molar value.
reported endpoint: pIC50

These recorded examples may help you get a feel for the data.
compound: O=C1CCC(N2C(=O)c3cccc(NCCOCCOCCOCC(=O)Nc4ccc(C(=O)Nc5cncc(Nc6ccc(-c7ccc(N8CCCC8=O)cc7)cn6)c5)cc4)c3C2=O)C(=O)N1 (stereo not shown) [Example 296]
target system: PIP4K2A (Homo sapiens, UniProt P48426)
test value: 6.00 to 7.00
//
compound: CN(C)C(=O)c1ccc(-c2ccc(Nc3cnccn3)nc2)cc1 [Example 36]
target system: PIP4K2A (Homo sapiens, UniProt P48426)
test value: < 6.00
//
compound: O=C1CCCN1c1ccc(-c2cnc(Nc3cnc4c(c3)N3C(=O)CC[C@H]3CO4)nc2N2CCOCC2)cc1 [Example 280]
target system: PIP4K2A (Homo sapiens, UniProt P48426)
test value: ≥ 9.00
//
compound: CN(C)C(=O)c1ccc(-c2ccc(Nc3cncc(C(=O)N(C)C)c3)nc2)cc1 [Example 37]
target system: PIP4K2A (Homo sapiens, UniProt P48426)
test value: < 6.00
//
compound: Cc1cnoc1-c1ccc(-c2ccc(Nc3cnc4c(c3)N3C(=O)CC[C@H]3CO4)nc2)cc1 [Example 277]
target system: PIP4K2A (Homo sapiens, UniProt P48426)
test value: 8.00 to 9.00
//
compound: CS(=O)(=O)N1CCOc2ncc(Nc3ccc(-c4ccc(N5CCCC5=O)cc4)cn3)cc21 [Example 156]
target system: PIP4K2A (Homo sapiens, UniProt P48426)
test value: 8.00 to 9.00
//
compound: CN(C)C(=O)c1ccc(-c2cnc(Nc3cncc(N4CCCC4=O)c3)cn2)cc1 [Example 19]
target system: PIP4K2A (Homo sapiens, UniProt P48426)
test value: 6.00 to 7.00
//
compound: COc1ccc(CN2CCN(c3cncc(Nc4ccc(-c5ccc(C(=O)N(C)C)cc5)cn4)c3)C2=O)cc1 [Example 74]
target system: PIP4K2A (Homo sapiens, UniProt P48426)
test value: 8.00 to 9.00
//
compound: CN(C)C(=O)c1ccc(-c2cnc(Nc3cncc(N4CCCC4=O)c3)cn2)c(F)c1 [Example 21]
target system: PIP4K2A (Homo sapiens, UniProt P48426)
test value: 6.00 to 7.00
//
compound: CN(C)C/C=C/C(=O)Nc1ccc(C(=O)Nc2cncc(Nc3ccc(-c4ccc(C(=O)N(C)C)cc4)cn3)c2)cc1 [Example 117]
target system: PIP4K2A (Homo sapiens, UniProt P48426)
test value: 8.00 to 9.00

IN: Any idea what pIC50 was measured for CN(C)C(=O)c1ccc(-c2ccc(Nc3cnc4c(c3)N(C(=O)CO)CCO4)nc2)cc1 [Example 89] ?
OUT: 8.00 to 9.00

IN: Then this compound: O=C1CCCN1c1ccc(-c2cnc(Nc3cnc4c(c3)N3C(=O)CC[C@H]3CO4)cn2)cc1 [Example 162]
OUT: 7.00 to 8.00

IN: Then this compound: CN(C)C/C=C/C(=O)NCC(=O)Nc1cccc(CN2CCN(c3cncc(Nc4ccc(-c5ccc(C(=O)N(C)C)cc5)cn4)c3)C2=O)c1 [Example 227]
OUT: ≥ 9.00

IN: Then this compound: O=C(c1ccc(-c2ccc(Nc3cccnc3)nc2)cc1)N1CCC1 [Example 11]
OUT: 7.00 to 8.00

IN: Then this compound: CN(C)C(=O)c1ccc(-c2ccc(Nc3cncc(N4CCCC4=O)c3)nc2)cc1F [Example 12]
OUT: 7.00 to 8.00
